assay: logP determination via retention times, calibrated with unbranched alkan-2-ones; format: physicochemical; conditions: HPLC on reversed-phase C18, method *: 40° C., 0.1% aqueous formic acid and acetonitrile, linear gradient 10% to 95% acetonitrile
Marks after values point to notes of the source that are not given here.
MEASURED PARAMETER: logP

Recorded logP, per entry:
COC(=O)Nc1ccc(Nc2ncc(C#N)c(NC3CC3)n2)cc1: 1.91*
CC(C)c1cccc(Nc2ncc(C(F)(F)F)c(NC3CC3)n2)c1: 4.14*
Clc1cnc(Nc2ccc3c(c2)OCO3)nc1NCC1CC1: 1.75*

## Input Would you kindly share the measured logP for FC(F)(F)Sc1ccccc1Nc1ncc(Cl)c(NC2CC2)n1 ?
## Output 3.72*

## Input Would you kindly share the measured logP for COc1ccccc1Nc1ncc(Cl)c(NCC2CC2)n1 ?
## Output 1.99*

## Input Would you kindly share the measured logP for FC(F)Oc1ccc(Nc2ncc(Br)c(NC3CC3)n2)cc1 ?
## Output 2.21*

---

test: logP determination via retention times, calibrated with unbranched alkan-2-ones; assay type: physicochemical; details: method *: HPLC reversed-phase C 18, temperature 40° C.; mobile phase 0.1% aqueous formic acid and acetonitrile; linear gradient 10% to 95% acetonitrile
Reported logP values are given for each entry in this list.

CC(=O)Nc1cccc(Nc2ncc(C(F)(F)F)c(NC3CC3)n2)c1 [compound 649]: 1.78*;
CN(C)S(=O)(=O)c1ccc(Nc2ncc(C(F)(F)F)c(NC3CC3)n2)cc1 [compound 645]: 2.84*

## Input Would you kindly share the measured logP for CC(=O)Nc1ccc(Nc2ncc(F)c(NC3CC3)n2)cc1Cl [compound 580] ?
## Output 1.32*

## Input Would you kindly share the measured logP for O=C1NC(=O)C(c2ccc(Nc3ncc(C(F)(F)F)c(NC4CC4)n3)cc2)N1 (stereo not drawn) [compound 658] ?
## Output 1.58*

## Input Would you kindly share the measured logP for CNC(=O)c1cccc(Nc2ncc(F)c(NC3CC3)n2)c1 [compound 585] ?
## Output 1.05*

## Input Would you kindly share the measured logP for CC(=O)Nc1cc(Nc2ncc(F)c(NC3CC3)n2)ccc1C [compound 601] ?
## Output 1.15*

## Input Would you kindly share the measured logP for CC(C)(C)OC(=O)NCc1ccc(Nc2ncc(C#N)c(NC3CC3)n2)cc1 [compound 615] ?
## Output 2.77*

## Input Would you kindly share the measured logP for FC(F)(F)Oc1cccc(Nc2ncc(C(F)(F)F)c(NC3CC3)n2)c1 [compound 643] ?
## Output 4.08*

## Input Would you kindly share the measured logP for C#Cc1cccc(Nc2ncc(C(F)(F)F)c(NC3CC3)n2)c1 [compound 627] ?
## Output 3.36*

---

experiment: logP determination via retention times, calibrated with unbranched alkan-2-ones; format: physicochemical; conditions: method *: HPLC reversed-phase C18, 40° C., 0.1% aqueous formic acid and acetonitrile, linear gradient 10% to 95% acetonitrile
Reported logP values are given for each entry in this list.

Recorded logP, per entry:
O=C1OCCN1c1ccc(Nc2ncc(Cl)c(NC3CC3)n2)cc1: 1.39*
COc1ccc(Nc2ncc(Cl)c(NC3CC3)n2)cn1: 1.34*
O=C1NC(=O)C(c2ccc(Nc3ncc(Br)c(NC4CC4)n3)cc2)N1 (stereo not shown): 0.62*
CCCCSc1cccc(Nc2ncc(Cl)c(NC3CC3)n2)c1.Cc1ccc(S(=O)(=O)O)cc1: 3.79*
CCOC(=O)Nc1cccc(Nc2ncc(Br)c(NC3CC3)n2)c1: 1.83*
COC(=O)Nc1ccc(Nc2ncc(C)c(NC3CC3)n2)cc1: 1.06*
CC(C)(C)NC(=O)c1cccc(Nc2ncc(Br)c(NCC3CC3)n2)c1: 2.16*
CSc1cc(Nc2ncc(Br)c(NCC3CC3)n2)ccc1C: 2.58*

## Input Would you kindly share the measured logP for O=C(NCc1ccc(Nc2ncc(Cl)c(NC3CC3)n2)cc1)OCc1ccccc1 ?
## Output 2.2*

## Input Would you kindly share the measured logP for CN(C)S(=O)(=O)c1ccc(Nc2ncc(Br)c(NCC3CC3)n2)cc1 ?
## Output 2.51*

## Input Would you kindly share the measured logP for CC(C)(C)OC(=O)NCc1ccc(Nc2ncc(Cl)c(NC3CC3)n2)cc1 ?
## Output 2.15*

## Input Would you kindly share the measured logP for CNC(=O)c1cccc(Nc2ncc(Br)c(NC3CC3)n2)c1 ?
## Output 1.39*

## Input Would you kindly share the measured logP for Cc1cnc(Nc2ccccc2)nc1NC1CC1 ?
## Output 1.5*

Measured values drawn from patent US20100081679A1 for this set.
